targetOrSystem: anti-CD28 scFv (VH - linker 1 - VL) (biotinylated (site not stated))
Sequence (scFv, as listed by the source): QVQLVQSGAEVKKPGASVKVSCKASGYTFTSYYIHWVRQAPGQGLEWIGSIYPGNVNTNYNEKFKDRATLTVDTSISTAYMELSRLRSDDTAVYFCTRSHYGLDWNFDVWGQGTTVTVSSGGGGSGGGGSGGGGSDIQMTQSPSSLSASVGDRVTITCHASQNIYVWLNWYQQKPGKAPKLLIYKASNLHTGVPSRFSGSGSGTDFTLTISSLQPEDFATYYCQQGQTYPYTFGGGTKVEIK
assayInfo: phage ELISA as above, wells pre-incubated with soluble CD28 as competitor
Decision: CD28 scFv signal in presence of CD28 >= 0.1 yields Satisfied, all other cases yield Not satisfied.

Solved cases below.
1. MDWCPAYLWAECFS [Phage-175] :: Satisfied
2. MDWCPMDMWVNCFN [Phage-193] :: Satisfied
3. IDWCPRDLWALCFN [Phage-183] :: Satisfied
4. MHWCPRYLWDECFN [Phage-180] :: Satisfied
5. MDWCPSDMWHECYA [Phage-194] :: Satisfied

Does MDWCPWILWNECFN [Phage-179] have a reported CD28 scFv signal in presence of CD28 of at least 0.1?
Satisfied

Request: MDWCPPYLWYECFA [Phage-172]
Not satisfied

Also MDWCPSYLWDQCFF [Phage-188] ?
Not satisfied

Just for reference, patent US20260242478A1 is where these values come from.
